Data provenance: PubChem BioAssay

experiment: modulators of MEP2-GFP levels in yeast, primary screen, S. cerevisiae, multiplex flow cytometry (AID 1867);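 further: median GFP channel fluorescence of barcode-gated MEP2-GFP cells measured by flow cytometry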; conditions: S. cerevisiae MEP2-GFP strain, 3 h, at 10 µM, active compounds read high, 100% means same as DMSO wells
Inconclusive results are not listed.
experimental readout: GFP response vs DMSO (%)
Kindly provide the numeric value in % only, without the unit symbol.

- O=C(COc1ccccc1)N1CCN(c2ccccc2)CC1: 104
- CC[C@H]1OC(=O)[C@H](C)[C@@H](O[C@H]2C[C@@](C)(OC)[C@@H](O)[C@H](C)O2)[C@H](C)[C@@H](O[C@@H]2O[C@H](C)C[C@H](N(C)C)[C@H]2O)[C@](C)(O)C[C@@H](C)[C@@H]2N[C@@H](COCCOC)O[C@H]([C@H]2C)[C@]1(C)O: 130

Which GFP response vs DMSO value belongs to `COc1cccc(CN2CCN(C(=O)c3ccc(-c4ccccc4)cc3)CC2)c1` ?
103

Which GFP response vs DMSO value belongs to `C[C@H](CS)C(=O)N1CCC[C@H]1C(=O)O` ?
98.9

Which GFP response vs DMSO value belongs to `CCN(CC)C(=O)c1ccc(O)c(OC)c1` ?
102

Which GFP response vs DMSO value belongs to `O=C1OC(c2ccc(O)cc2)(c2ccc(O)cc2)c2ccccc21` ?
102

Which GFP response vs DMSO value belongs to `Cc1cc(C(C)(C)C)cc(C)c1CC1=NCCN1` ?
133

Which GFP response vs DMSO value belongs to Cc1ccc2c(c1)C(O)(c1c(C)[nH]c3ccccc13)C(=O)N2 (stereo not given) ?
97.9

Which GFP response vs DMSO value belongs to COC1=CC(=O)CC(C)C12Oc1c(Cl)c(OC)cc(OC)c1C2=O (stereo not given) ?
99.9

Which GFP response vs DMSO value belongs to `Cc1oc2cc(O)ccc2c(=O)c1Oc1ccccc1Br` ?
108

###

In this section we review reported efflux inhibition (fraction of control) values for a set of compounds.
test: inhibitors of fungal efflux pumps CDR1, CDR2, MDR1, pilot screen, validation compound set, multiplex, phenotypic (AID 588506);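 further: Nile Red retained in cells so higher fluorescence means more efflux inhibition; 0 = negative control wells and 1 = enniatin B 25 µM full block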; settings: S. cerevisiae pump-expressing triplex, Nile Red efflux flow cytometry; at 10 µM; active compounds read high; the pumps come from Candida albicans
Just the number, please.

- CN(CCc1cnn(C)c1)Cc1nc(CC2CC2)no1: -0.16
- CC(=Nc1ccccc1)C1=C(O)CCCC1=O: -0.24

Which efflux inhibition (fraction of control) value belongs to `O=c1[nH]cnc2c1ncn2[C@@H]1O[C@H](CO)[C@@H](O)[C@H]1O` ?
0.12

Which efflux inhibition (fraction of control) value belongs to `Cc1ccc2c(CN3CCN(Cc4ccc5c(c4)OCO5)CC3)cc(=O)oc2c1C` ?
-0.28

Which efflux inhibition (fraction of control) value belongs to `CCCCC[C@H](O)/C=C/[C@@H]1[C@@H](C/C=C\CCCC(=O)O)[C@@H](O)C[C@H]1O` ?
0.045

Which efflux inhibition (fraction of control) value belongs to `Cc1cc(C(C)(C)C)c(O)c(C)c1CC1=NCCN1` ?
0.34

###

target: ATP-binding cassette sub-family B member 6 (Homo sapiens); assay: ABCB6 transporter inhibitors, pilot screen, K562-ABCB6 cells, flow cytometry, validation set (AID 588550); conditions: K562-ABCB6 porphyrin accumulation, 1 h, at 10 µM, active compounds read high;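 further: 0% = DMSO wells and 100% = benzethonium chloride 70 µM positive control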
Label true (1) for high-side inhibition (at or above 10%) and false (0) for low-side inhibition (below it).

Some entries whose results are on file:
• CC1(C)CC(=O)c2cc(O)ccc2O1 = true (1)
• COc1cc2c(cc1O)CCN(C(=O)c1ccco1)C2C (stereo unspecified) = false (0)
• O=C(O)C[C@@H](O)C(=O)O = false (0)
• CCOC(=O)[C@H](CCc1ccccc1)N[C@@H](C)C(=O)N1CCC[C@H]1C(=O)O = false (0)
• Cc1cnc(C(=O)NCCc2ccc(S(=O)(=O)NC(=O)NC3CCCCC3)cc2)cn1 = false (0)

Reported inhibition at or above 10%? `COc1ccc(C(=O)Nc2ccc(OC)c([N+](=O)[O-])c2)cc1Br`
false (0)

Reported inhibition at or above 10%? CC12CCC(C(=O)N3CCCCC3)([C@H](Br)C1=O)C2(C)C (stereo partly specified)
true (1)

Reported inhibition at or above 10%? CC(C)CC(=O)N(Cc1ccc(F)cc1)C1CCS(=O)(=O)C1 (stereo unspecified)
true (1)

Reported inhibition at or above 10%? Cc1cc(OC(C(=O)O)c2ccccc2)c2c(C)c(Cc3ccccc3)c(=O)oc2c1 (stereo unspecified)
false (0)
